target: rat 5-HT7 receptor (Rattus norvegicus (Rat), UniProt P32305); assay: r5-HT7 binding assay, competitive radioligand binding with [3H]5-CT; conditions: rat 5-HT7 receptor, HEK-293 membranes
Sequence (P32305 1-435): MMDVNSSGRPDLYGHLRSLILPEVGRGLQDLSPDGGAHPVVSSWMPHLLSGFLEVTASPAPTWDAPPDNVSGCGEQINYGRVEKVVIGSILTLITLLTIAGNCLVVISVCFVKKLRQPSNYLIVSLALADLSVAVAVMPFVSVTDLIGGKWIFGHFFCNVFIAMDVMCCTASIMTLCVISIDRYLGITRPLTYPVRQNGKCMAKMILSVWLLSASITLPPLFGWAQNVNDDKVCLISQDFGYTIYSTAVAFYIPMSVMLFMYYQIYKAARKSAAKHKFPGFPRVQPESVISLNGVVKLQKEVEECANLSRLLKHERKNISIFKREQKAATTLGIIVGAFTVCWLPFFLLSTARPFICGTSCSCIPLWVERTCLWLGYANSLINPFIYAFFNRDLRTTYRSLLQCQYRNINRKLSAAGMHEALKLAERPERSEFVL
Entries and their Ki values follow.
The figure you give is taken to be in nM; do not add the unit.

In plain terms, FC(F)(F)c1cccc(COc2ccc(Cl)cc2OC2CNC2)n1 has a documented Ki of 26

---

molecular target: rat 5-HT7 receptor (Rattus norvegicus (Rat), UniProt P32305); test: r5-HT7 binding assay, competitive radioligand binding with [3H]5-CT; conditions: rat 5-HT7 receptor, HEK-293 membranes
Would you mind classing the entries by Ki? Ranges: low-valued = under 20 nM, mid-valued = from 20 nM up to 40 nM, high-valued = 40 nM and over

                                   compound  assigned_label
0  CC(C)N1CC(Oc2cc(F)ccc2OCc2cccc(Cl)c2)C1 [Example 204]      mid-valued
1  COc1ccc2c(c1)CC(Oc1ccc(Cl)cc1OC1CNC1)C2 (stereo not drawn) [Example 177]      low-valued
2  Fc1cc(Cl)cc(OC2CNC2)c1OCc1ccc(C(F)(F)F)o1 [Example 198]     high-valued
3  COc1cccc(COc2ccc(Cl)cc2OC2CNC2)c1 [Example 33]      low-valued
4  FC(F)(F)c1cccc(COc2ccc(Cl)cc2OC2CCCNC2)c1 (racemic) [Example 71]     high-valued
5  Clc1ccc(OCc2ccccc2Cl)c(OC2CNC2)c1 [Example 35]      mid-valued

Attention now shifts to the item below.
Q. Record Clc1ccc2c(c1)CCC2Oc1ccc(Br)cc1OC1CNC1 (racemic) [Example 152] — which class?
A. low-valued
